Parameter residual activity: see the listing below.
- assay.target: Mitogen-activated protein kinase 11 (Homo sapiens) (UniProt Q15759)
- Sequence (Q15759 whole entry): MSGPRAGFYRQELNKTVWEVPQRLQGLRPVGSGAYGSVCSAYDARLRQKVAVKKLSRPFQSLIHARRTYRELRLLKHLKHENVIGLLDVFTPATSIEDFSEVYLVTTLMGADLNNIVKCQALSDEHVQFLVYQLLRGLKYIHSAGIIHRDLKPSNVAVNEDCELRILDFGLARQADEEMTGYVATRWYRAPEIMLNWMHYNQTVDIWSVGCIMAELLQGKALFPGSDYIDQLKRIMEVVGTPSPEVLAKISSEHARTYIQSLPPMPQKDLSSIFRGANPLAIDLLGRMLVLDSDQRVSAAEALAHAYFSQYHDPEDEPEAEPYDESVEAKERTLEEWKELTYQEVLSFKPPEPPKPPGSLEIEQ
- settings: at 1 µM
Form entry: value (%) — number only.

Consider the worked cases shown below.
query: Quick one: residual activity of `Ic1cccc(CSc2nnc(-c3ccncc3)o2)c1` ?
result: 102

query: How about this compound: `O=C1Nc2ccc(Br)cc2/C1=C\c1cc2c([nH]1)CCCC2`
result: 98

query: How about this compound: `Nc1n[nH]c2nnc(-c3c(-c4ccccc4)nn4ccccc34)cc12`
result: 94

query: How about this compound: `O=[N+]([O-])c1ccc(-c2nc(-c3ccc(F)cc3)c(-c3ccncc3)[nH]2)cc1`
result: 5

query: How about this compound: `CCN(CC)CCCCN1c2ccccc2Oc2ccc(Cl)cc21`
result: 106

***
query: Quick one: residual activity of `O=Nc1c(-c2c(O)[nH]c3ccccc23)[nH]c2ccccc12` ?
result: 101

query: How about this compound: `Cc1cccc(-c2[nH]c(C(C)(C)C)nc2-c2ccc3c(c2)OCO3)n1`
result: 97

query: How about this compound: `CC(=O)O/N=C1\C(=C2\C(=O)Nc3cc(Br)ccc32)Nc2ccccc21`
result: 94

query: How about this compound: `O=C1c2ccccc2-[n+]2ccc3c([nH]c4ccccc43)c21`
result: 94

---

- assay.target: Serine/threonine-protein kinase PLK2 (Homo sapiens) (UniProt Q9NYY3);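 also: residual PLK2 kinase activity expressed as percent of uninhibited control, measured in MOPS buffer at pH 7.0 with EDTA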
- Sequence (Q9NYY3 whole entry, looked up): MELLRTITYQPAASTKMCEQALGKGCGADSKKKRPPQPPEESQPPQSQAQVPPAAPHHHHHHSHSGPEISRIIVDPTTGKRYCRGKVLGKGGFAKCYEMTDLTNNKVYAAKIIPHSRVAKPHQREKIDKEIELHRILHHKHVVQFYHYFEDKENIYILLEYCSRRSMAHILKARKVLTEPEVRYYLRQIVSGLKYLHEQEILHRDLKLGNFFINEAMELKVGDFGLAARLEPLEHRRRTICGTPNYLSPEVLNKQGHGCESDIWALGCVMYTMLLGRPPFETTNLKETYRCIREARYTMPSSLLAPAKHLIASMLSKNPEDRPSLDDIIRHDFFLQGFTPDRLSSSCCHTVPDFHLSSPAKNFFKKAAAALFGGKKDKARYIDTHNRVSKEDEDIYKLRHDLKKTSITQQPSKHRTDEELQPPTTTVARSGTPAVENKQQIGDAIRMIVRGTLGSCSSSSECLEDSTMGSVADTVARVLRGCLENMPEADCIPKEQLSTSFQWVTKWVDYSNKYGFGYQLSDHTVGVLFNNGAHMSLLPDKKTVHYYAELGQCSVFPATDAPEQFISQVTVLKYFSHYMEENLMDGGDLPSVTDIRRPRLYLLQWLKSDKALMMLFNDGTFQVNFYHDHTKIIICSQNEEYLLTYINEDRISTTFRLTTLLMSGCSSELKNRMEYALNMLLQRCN
- settings: at 1 µM
- Description: Millipore: Percentage of residual kinase activity of PLK2 at 1uM relative to control. Control inhibitor: Phosphoric acid* at 0.3uM. Buffer: 8 mM MOPS pH 7.0, 0.2 mM EDTA
experimental.endpoint: residual activity
Could you give the number and then its unit, please?

query: Quick one: residual activity of `O=C1NC(=O)c2cc(Nc3ccc(F)cc3)c(Nc3ccc(F)cc3)cc21` ?
result: 97%

query: How about this molecule: `Nc1nc(Nc2ccc(S(N)(=O)=O)cc2)nn1C(=S)Nc1c(F)cccc1F`
result: 71%

query: How about this molecule: `CC(=O)c1ccc(N2CCOCC2)cc1O`
result: 103%

***
query: Quick one: residual activity of `O=C1Nc2ccc(Br)cc2/C1=C\c1cc2c([nH]1)CCCC2` ?
result: 105%

query: How about this molecule: `CC(C)n1cnc2/c(=N/c3cccc(Cl)c3)nc(NCCO)[nH]c21`
result: 61%

query: How about this molecule: `CO[C@@H]1[C@H](N(C)C(=O)c2ccccc2)C[C@H]2O[C@]1(C)n1c3ccccc3c3c4c(c5c6ccccc6n2c5c31)C(=O)NC4`
result: 100%

query: How about this molecule: `C[C@@H](N)[C@H]1CC[C@H](C(=O)Nc2ccncc2)CC1`
result: 100%

query: How about this molecule: `O=[N+]([O-])c1ccc(-c2nc(-c3ccc(F)cc3)c(-c3ccncc3)[nH]2)cc1`
result: 103%

query: How about this molecule: `O=C1NC(=O)/C(=C\c2ccc3nccnc3c2)S1`
result: 94%

---

- assay.target: SRSF protein kinase 1 (Homo sapiens)
- settings: at 1 µM
experimental.endpoint: residual activity (%)
Form entry: value (%) — number only.

Consider the worked cases shown below.
query: Quick one: residual activity of `CCN(CC)CCCCN1c2ccccc2Oc2ccc(Cl)cc21` ?
result: 101

query: How about this molecule: `CCC(=O)Nc1ccc2ncnc(Nc3cccc(Br)c3)c2c1`
result: 102

query: How about this molecule: `Cn1nc2c3c(cccc31)C(=O)c1ccccc1-2`
result: 101

***
query: Quick one: residual activity of `Cn1cc(/C=C2\C(=O)Nc3ccc(S(N)(=O)=O)cc32)c2ccccc21` ?
result: 39

query: How about this molecule: `COc1ccc(C(=O)Nc2sc3c(c2C(N)=O)CCCC3)cc1OC`
result: 84

query: How about this molecule: `O=Nc1c(-c2c(O)[nH]c3ccccc23)[nH]c2ccccc12`
result: 90

query: How about this molecule: `CC(C)n1cnc2c(NCc3ccccc3)nc(NCCCO)nc21`
result: 78

query: How about this molecule: `Oc1ccc(Nc2nc(-c3ccc(Cl)cc3)cs2)cc1`
result: 105

query: How about this molecule: `O=C1NC(=O)c2cc(Nc3ccc(F)cc3)c(Nc3ccc(F)cc3)cc21`
result: 102

---

- assay.target: Receptor-type tyrosine-protein kinase FLT3 (Homo sapiens) (UniProt P36888)
- Sequence (P36888 whole entry): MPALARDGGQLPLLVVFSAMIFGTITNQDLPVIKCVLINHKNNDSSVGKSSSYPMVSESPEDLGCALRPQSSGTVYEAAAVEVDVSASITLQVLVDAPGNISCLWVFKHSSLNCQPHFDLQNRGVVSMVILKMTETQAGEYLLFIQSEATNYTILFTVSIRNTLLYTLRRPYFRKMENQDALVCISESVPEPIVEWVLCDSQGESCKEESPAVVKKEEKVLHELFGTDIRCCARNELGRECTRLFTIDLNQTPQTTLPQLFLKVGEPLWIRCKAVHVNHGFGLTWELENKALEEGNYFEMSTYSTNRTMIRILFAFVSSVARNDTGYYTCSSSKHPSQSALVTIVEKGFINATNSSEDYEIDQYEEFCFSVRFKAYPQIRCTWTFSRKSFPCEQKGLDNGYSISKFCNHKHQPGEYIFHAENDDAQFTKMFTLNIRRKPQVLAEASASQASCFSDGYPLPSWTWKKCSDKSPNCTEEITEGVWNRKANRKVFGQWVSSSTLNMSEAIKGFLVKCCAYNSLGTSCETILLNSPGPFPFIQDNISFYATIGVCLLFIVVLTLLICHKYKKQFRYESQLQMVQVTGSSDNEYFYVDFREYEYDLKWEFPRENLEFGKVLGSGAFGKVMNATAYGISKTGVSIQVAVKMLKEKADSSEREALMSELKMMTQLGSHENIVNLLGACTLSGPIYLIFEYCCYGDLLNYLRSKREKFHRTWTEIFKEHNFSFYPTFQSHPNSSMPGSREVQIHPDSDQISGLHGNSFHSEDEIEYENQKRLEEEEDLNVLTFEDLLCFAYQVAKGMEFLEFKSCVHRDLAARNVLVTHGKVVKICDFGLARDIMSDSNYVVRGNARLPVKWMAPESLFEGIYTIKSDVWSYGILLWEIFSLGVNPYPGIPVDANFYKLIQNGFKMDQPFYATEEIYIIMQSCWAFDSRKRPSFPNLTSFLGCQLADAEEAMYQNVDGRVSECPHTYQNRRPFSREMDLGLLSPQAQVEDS
- settings: at 1 µM
experimental.endpoint: residual activity (%)
Form entry: value (%) — number only.

query: Quick one: residual activity of `CCOc1cc2ncnc(Nc3cccc(Br)c3)c2cc1OCC` ?
result: 101

---

- assay.target: Serine/threonine-protein kinase 3 (Homo sapiens)
- settings: at 10 µM
Parameter residual activity: see the listing below.
Form entry: value (%) — number only.

Consider the worked cases shown below.
query: Quick one: residual activity of `Cc1ccc(S(=O)(=O)/C=C/C#N)cc1` ?
result: 95

query: How about this compound: `c1ccc(-c2n[nH]cc2-c2ccnc3ccccc23)nc1`
result: 88

***
query: Quick one: residual activity of `O=C(Nc1cccc(Nc2cc(Nc3cccc(C(F)(F)F)c3)ncn2)c1)C1CC1` ?
result: 65

---

Parameter residual activity: see the listing below.
- assay.target: Inhibitor of nuclear factor kappa-B kinase subunit beta (Homo sapiens)
- Sequence (whole entry): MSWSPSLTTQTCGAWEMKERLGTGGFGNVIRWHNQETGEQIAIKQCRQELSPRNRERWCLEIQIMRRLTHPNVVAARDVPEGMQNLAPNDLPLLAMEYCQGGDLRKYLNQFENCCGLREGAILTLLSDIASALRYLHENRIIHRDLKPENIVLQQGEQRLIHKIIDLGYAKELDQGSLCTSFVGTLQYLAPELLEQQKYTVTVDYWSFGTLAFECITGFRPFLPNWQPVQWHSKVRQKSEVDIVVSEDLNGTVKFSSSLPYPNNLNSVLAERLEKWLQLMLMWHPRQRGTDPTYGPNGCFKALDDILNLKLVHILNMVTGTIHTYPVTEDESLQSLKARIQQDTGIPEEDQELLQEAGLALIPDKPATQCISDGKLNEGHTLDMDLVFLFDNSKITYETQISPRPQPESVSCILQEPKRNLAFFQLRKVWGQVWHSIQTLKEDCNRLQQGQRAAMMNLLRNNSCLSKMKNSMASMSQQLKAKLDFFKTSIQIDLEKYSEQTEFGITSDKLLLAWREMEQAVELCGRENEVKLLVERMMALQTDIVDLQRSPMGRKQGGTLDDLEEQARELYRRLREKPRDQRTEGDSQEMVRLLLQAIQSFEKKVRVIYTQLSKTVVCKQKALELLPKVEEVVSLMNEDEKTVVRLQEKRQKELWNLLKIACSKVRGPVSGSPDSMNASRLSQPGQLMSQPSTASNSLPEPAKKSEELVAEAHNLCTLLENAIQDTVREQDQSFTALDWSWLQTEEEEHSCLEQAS
- settings: at 1 µM
Form entry: value (%) — number only.

Consider the worked cases shown below.
query: Quick one: residual activity of `Nc1n[nH]c2nnc(-c3c(-c4ccccc4)nn4ccccc34)cc12` ?
result: 102

query: How about this molecule: `COc1cc2ncnc(Nc3ccc(Oc4ccccc4)cc3)c2cc1OC`
result: 103

query: How about this molecule: `NC(=O)c1ccc2[nH]c(-c3ccc(Oc4ccc(Cl)cc4)cc3)nc2c1`
result: 108

query: How about this molecule: `N#Cc1cnc2cnc(NCc3cccnc3)cc2c1Nc1ccc(F)c(Cl)c1`
result: 84

query: How about this molecule: `CC#CC(=O)Nc1cc2c(Nc3ccc(F)c(Cl)c3)ncnc2cn1`
result: 96

***
query: Quick one: residual activity of `COc1ccc(CNc2nc(N(CCO)CCO)nc3c2ncn3C(C)C)cc1` ?
result: 112

query: How about this molecule: `O=[N+]([O-])c1ccc(-c2nc(-c3ccc(F)cc3)c(-c3ccncc3)[nH]2)cc1`
result: 129

query: How about this molecule: `N#C/C(=C(\N)Sc1ccc(N)cc1)c1ccccc1C(F)(F)F`
result: 106

query: How about this molecule: `Nc1nc(Nc2ccc(S(N)(=O)=O)cc2)nn1C(=S)Nc1c(F)cccc1F`
result: 33

query: How about this molecule: `Ic1cccc(CSc2nnc(-c3ccncc3)o2)c1`
result: 87

query: How about this molecule: `Oc1n[nH]c2nnc(-c3c(-c4ccccc4)nn4ccccc34)cc12`
result: 97

query: How about this molecule: `CN(C)c1ccc(/C=C2\C(=O)Nc3ccccc32)cc1`
result: 112

query: How about this molecule: `Oc1ccc(-c2nc(-c3ccc(F)cc3)c(-c3ccncc3)[nH]2)cc1`
result: 120

---

- assay.target: Macrophage colony-stimulating factor 1 receptor (Homo sapiens)
- settings: at 10 µM
Rule: residual activity under 50% gives NOT MET, otherwise MET.

Reference set, count: 5
query: Textbook exercise: given the entry `Nc1cccc(-c2cc3c(Oc4cccc(O)c4)ncnc3[nH]2)c1` , state whether its residual activity is greater than or equal to 50%.
result: NOT MET

query: How about this compound: `Ic1cccc(CSc2nnc(-c3ccncc3)o2)c1`
result: MET

query: How about this compound: `Cn1cnc2cc3c(Nc4cccc(Br)c4)ncnc3cc21`
result: NOT MET

query: How about this compound: `O=C1NC(=O)/C(=C/c2ccc3c(c2)OC(F)(F)O3)S1`
result: MET

query: How about this compound: `Cc1ccc(NC2=CC(=O)c3sc(C)nc3C2=O)cc1`
result: MET

Now let's try a different one.
query: Textbook exercise: given the entry `CCN(CC)CCCCN1c2ccccc2Oc2ccc(Cl)cc21` , state whether its residual activity is greater than or equal to 50%.
result: MET
